All figures here come from ChEMBL document CHEMBL1201862.

Form field: IC50 (one value per entry).
# system-name: DNA dC->dU-editing enzyme APOBEC-3G (Homo sapiens, UniProt Q9HC16);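 also: Dose-response counterscreen measuring inhibition of APOBEC3G DNA deaminase activity, run while confirming APOBEC3A inhibitors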
# Sequence (Q9HC16 whole entry): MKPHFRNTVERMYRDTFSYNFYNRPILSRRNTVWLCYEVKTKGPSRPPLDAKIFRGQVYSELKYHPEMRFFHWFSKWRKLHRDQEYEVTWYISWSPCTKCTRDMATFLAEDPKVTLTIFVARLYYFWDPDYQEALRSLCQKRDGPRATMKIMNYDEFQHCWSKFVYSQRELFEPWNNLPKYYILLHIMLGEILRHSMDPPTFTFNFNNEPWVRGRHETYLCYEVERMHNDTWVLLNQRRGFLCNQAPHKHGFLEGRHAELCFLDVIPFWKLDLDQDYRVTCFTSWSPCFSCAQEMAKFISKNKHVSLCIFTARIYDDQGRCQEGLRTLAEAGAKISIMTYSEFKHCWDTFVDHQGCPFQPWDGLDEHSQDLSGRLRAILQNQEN
# Assay type: functional
The source made the active and inactive calls.
measure-name: IC50

COC(=O)C1=C(C)N(Cc2ccccc2)C(NCCc2ccccn2)=N[C@H]1c1cccc(F)c1 :: 4.79 µM (active)
CCN(CC)C(=O)Cn1c(C)c(/C=C/c2cc[n+](C)cc2)c2ccccc21 :: 4.08 µM (active)
C[N+]1(CC(=O)OCCCc2ccccc2)CCCCC1 :: 2.42 µM (active)
CC[n+]1c(C)n(Cc2ccccc2)c2ccc(Cl)cc21 :: 2.27 µM (active)
Cc1cc(C)cc(OCC(=O)N2N=C(C(F)(F)F)CC2(O)C(C)(C)C)c1 (stereo unspecified) :: 5.91 µM (active)
CC(=O)Nc1ccc2c(COC(=O)CC3Sc4ccccc4NC3=O)cc(=O)oc2c1 (stereo unspecified) :: 30.7 µM (active)

---

# system-name: Short transient receptor potential channel 4 (Mus musculus, UniProt Q9QUQ5)
# Sequence (Q9QUQ5 whole entry): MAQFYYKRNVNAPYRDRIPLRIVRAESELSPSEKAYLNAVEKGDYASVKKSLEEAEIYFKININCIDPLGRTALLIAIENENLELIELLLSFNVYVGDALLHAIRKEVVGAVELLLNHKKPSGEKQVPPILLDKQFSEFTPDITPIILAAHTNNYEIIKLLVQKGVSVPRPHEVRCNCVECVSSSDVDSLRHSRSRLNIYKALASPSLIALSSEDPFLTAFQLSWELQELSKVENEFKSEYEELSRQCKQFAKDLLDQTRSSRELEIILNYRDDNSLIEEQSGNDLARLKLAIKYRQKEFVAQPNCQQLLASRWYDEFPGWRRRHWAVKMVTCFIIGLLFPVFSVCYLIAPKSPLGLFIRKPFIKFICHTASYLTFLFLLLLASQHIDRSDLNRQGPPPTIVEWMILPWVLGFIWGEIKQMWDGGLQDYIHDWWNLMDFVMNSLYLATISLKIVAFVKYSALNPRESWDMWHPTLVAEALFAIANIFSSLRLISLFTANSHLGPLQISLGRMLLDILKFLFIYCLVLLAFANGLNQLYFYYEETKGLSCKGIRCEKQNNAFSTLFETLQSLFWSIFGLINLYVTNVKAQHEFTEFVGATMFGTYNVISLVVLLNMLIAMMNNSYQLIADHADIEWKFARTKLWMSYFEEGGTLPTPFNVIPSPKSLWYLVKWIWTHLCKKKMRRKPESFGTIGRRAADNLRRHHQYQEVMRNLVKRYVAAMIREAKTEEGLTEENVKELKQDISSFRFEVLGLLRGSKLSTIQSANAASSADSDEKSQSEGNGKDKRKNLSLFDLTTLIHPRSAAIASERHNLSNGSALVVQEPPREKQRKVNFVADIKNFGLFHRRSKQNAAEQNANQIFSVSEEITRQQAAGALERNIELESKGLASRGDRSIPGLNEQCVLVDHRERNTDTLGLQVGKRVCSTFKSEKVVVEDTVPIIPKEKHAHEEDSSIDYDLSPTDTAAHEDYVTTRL
# protocol-notes: block of DAMGO-driven TRPC4 calcium entry – cell-based, HEK293 TRPC4/mu-opioid, Fluo-4 calcium, dose response (AID 434942);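 also: potency of inhibitors blocking the TRPC4 calcium response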
# Type: functional
Calls of active or inactive are those of the source.
measure-name: EC50

Cc1ccc(Cn2c(=N)n(CC(O)c3ccco3)c3ccccc32)cc1 (stereo unspecified) :: 1.88 µM (active)
COc1ccc(C(CNc2ccc(C(F)(F)F)cn2)N(C)C)cc1OC (stereo unspecified) :: 0.299 µM (active)
N#Cc1cccc2c1-c1ccccc1/C2=N/NC(N)=O :: 0.0533 µM (active)
CN(Cc1cnn(C)c1)C(=O)c1ccc(OC2CCN(CCc3ccccc3)CC2)cc1 :: 1.5 µM (active)
Cc1cc(-c2sccc2C)nc(-n2cccc2)n1 :: 7.5 µM (active)
COc1cccc(C(=O)C2CCCN(Cc3cccn3-c3ccccn3)C2)c1 (stereo unspecified) :: 6.68 µM (active)
CCCOc1ccc(Br)cc1/C=N/O :: 1.68 µM (active)
CCOC(=O)C1CCN(C2CCN(C(=O)c3oc4c(C)c(C)ccc4c3C)CC2)CC1 :: 4.22 µM (active)
c1ccc(NC(=NCc2ccco2)c2ccccc2)cc1 :: 18.8 µM (active)
COCCn1c(SCc2ccc(OC)c(F)c2)nc2ccccc2c1=O :: 2.99 µM (active)
Cc1ccc(C[n+]2cc(-c3ccc(Cl)cc3)n3c2CCC3)cc1 :: 2.37 µM (active)
